Values were extracted from ChEMBL document CHEMBL3988442.

- testedOn: ClpP1P2 (Mycobacterium tuberculosis (strain ATCC 25618 / H37Rv)) (UniProt P9WPC5+P9WPC3)
- protocolText: in vitro assay to detect presence of AMC directly proportional to the activity of ClpP1P2. GHDDI collaboration.
- Type: functional
- Design: scale not given: direction of the effect not stated beside the values
- assayConditions: 50 µM
Among all 69,000 compounds or so, about 10 (0.01%) showed an effect of 50% or more. Shown is part of a subset that was picked to be rich in strong results.

molecule: COCC(=O)N1CCN(S(=O)(=O)c2cccs2)[C@H]2CS(=O)(=O)C[C@H]21
Percent Effect, %: 21.1

molecule: COCCNC(=O)[C@H]1C[C@@H]2CCN(c3ccncn3)C[C@H]2O1
Percent Effect, %: -14.9

molecule: CN1CCN(C(=O)C[C@@H]2COC[C@H]3CN(c4ccncn4)C[C@@H]23)CC1
Percent Effect, %: -11.8

molecule: CC(C)N1C[C@@H]2CN(C(=O)NCc3ccccc3)CCC[C@]2(C(=O)O)C1
Percent Effect, %: -0.327

molecule: O=C(CCC(F)(F)F)N1CCN(Cc2ccncc2)[C@@H]2CS(=O)(=O)C[C@@H]21
Percent Effect, %: -11.9

molecule: CCc1cnc(N2C[C@H]3C[C@H](C(=O)N4CCOCC4)[C@@H](C2)O3)nc1
Percent Effect, %: 7.75

molecule: N#Cc1ccccc1C(=O)N1C[C@H]2CC[C@@H]1CN(c1ncccn1)C2
Percent Effect, %: 12.4

molecule: CO[C@H]1CN(Cc2ccc(C)o2)[C@@H]2CCCO[C@H]12
Percent Effect, %: -4

molecule: COCCN1C[C@H]2CN(C(=O)NC(C)C)CCN2C1=O
Percent Effect, %: -7.02

molecule: COc1cccc(CN2CCCCCC2c2cccs2)c1O (configuration not stated)
Percent Effect, %: -21.7

molecule: CNC(=O)[C@H]1C[C@@H]2CN(C(=O)Nc3ccccc3)C[C@H]1O2
Percent Effect, %: -3.31

molecule: Cc1noc([C@@]23CCO[C@@H]2CCN(C(=O)CN(C)C)C3)n1
Percent Effect, %: -12.4

molecule: O=C(C1=CCCC1)N1C[C@@H]2COC[C@]2(COCC2CC2)C1
Percent Effect, %: -3.2

molecule: CC(=O)N1CCC(N2CCN3C(=O)N(c4ccccc4)C[C@H]3C2)CC1
Percent Effect, %: -1.27

molecule: O=C1CC[C@]2(CC[C@@H](NCc3cccnc3)CC2)N1Cc1ccccc1
Percent Effect, %: 9.66

molecule: COc1ccc(CN2C[C@H]3C[C@H](C(=O)Nc4cccnc4)[C@@H](C2)O3)cc1
Percent Effect, %: 7.77

molecule: COCCN1CC[C@H]2CN(Cc3ccc(C)s3)C[C@@H]2C1=O
Percent Effect, %: -2.27

molecule: CN(C)C[C@]12COC[C@H]1CN(C(=O)Cc1ccc3c(c1)OCO3)C2
Percent Effect, %: 7.79

molecule: Cc1noc(C)c1CN1C[C@H](OCC(=O)N(C)C)[C@H]2OCCC[C@H]21
Percent Effect, %: -8.82

molecule: CC(=O)N1CC[C@H]2CC(=O)N(C3CCCCC3)CC[C@H]2C1
Percent Effect, %: -8.93

molecule: CC(=O)N1CCC(c2cncc(N3CCOCC3)n2)CC1
Percent Effect, %: 55.4

molecule: COCC(=O)N1CCC[C@]2(C(=O)N(C)C)CN(c3ccccn3)C[C@@H]2C1
Percent Effect, %: -0.178

molecule: Cc1cccc(CN2C(=O)CO[C@@H]3CN(C4CCOCC4)C[C@H]32)c1
Percent Effect, %: -8.98

molecule: Cc1nc(-c2ccc(CC(=O)N3CCN(C(=O)C(C)C)CC3)cc2)cs1
Percent Effect, %: 88.4

molecule: CN1C[C@H]2CN(C(=O)c3ccc4c(c3)OCO4)CCN2C1=O
Percent Effect, %: -1.11

molecule: Cc1ccc(C(=O)N2CC[C@@H]3[C@H]2CCC(=O)N3CCN(C)C)cn1
Percent Effect, %: 15.8

molecule: O[C@@H]1C[C@@](CNCC2CCCC2)(COc2cccnc2)C[C@@H]1O
Percent Effect, %: -0.271

molecule: Cc1cccc(COC[C@@]23CCC[C@@H]2CN(S(=O)(=O)N(C)C)C3)n1
Percent Effect, %: -4.08

molecule: CCN1C[C@H]2CCN(Cc3ccncc3)C(=O)[C@@H]2C1
Percent Effect, %: -1.34

molecule: Cn1ccnc1C(=O)NC[C@H]1OC[C@@H]2CCN(S(C)(=O)=O)C[C@@H]21
Percent Effect, %: 12.7

molecule: Cc1nc(-c2ccc(CC(=O)N3CCNC(=O)C3)cc2)cs1
Percent Effect, %: -0.00295

molecule: O=C(NC1CCC1)[C@@H]1C[C@@H]2CCN(Cc3cccs3)C[C@@H]2O1
Percent Effect, %: -6.23

molecule: CC1=N[C@@]2(CC[C@@H]3CN(CC4CC4)C[C@@H]32)C(=O)N1CC1CC1
Percent Effect, %: -5.13

molecule: Cc1ccc(CN2C[C@@H]3CCN(Cc4cccnc4)C(=O)[C@H]3C2)s1
Percent Effect, %: 13.6

molecule: CN(C)C(=O)N1CCC[C@]2(C(=O)N(C)C)CN(c3ccccn3)C[C@@H]2C1
Percent Effect, %: -16.1

molecule: Cc1nc(COC[C@@]23CCC[C@@H]2CN(Cc2cnn(C)c2)C3)cs1
Percent Effect, %: 2.95

molecule: CN(C)C[C@H]1OC[C@@H]2CCN(S(=O)(=O)c3cccs3)C[C@@H]21
Percent Effect, %: -1.92

molecule: COCCN1C[C@@H]2CN(Cc3cccc(F)c3)CCC[C@]2(C(=O)O)C1
Percent Effect, %: -13.3

molecule: COCCN1C[C@@H]2[C@@H](OC)CCN(S(=O)(=O)c3cccnc3)[C@@H]2C1
Percent Effect, %: -10.6

molecule: Cc1ccnn1CCC(=O)N1C[C@H]2CC[C@@H]1CN(CC(=O)N(C)C)C2
Percent Effect, %: 10.3

molecule: COc1cc(CN2CCCCCC2c2cccs2)cc(OC)c1OC (configuration not stated)
Percent Effect, %: 1.65

molecule: CC(C)(C)c1ccc(CN2C[C@H]3C[C@H](O)C[C@H]3C2)c(OCC(N)=O)c1
Percent Effect, %: 2.62
